- assay.comment: background-corrected fluorescence of 3'-dye-labeled ssDNA relative to brightest sequence (3'-GCGCG) (fraction); higher = brighter dye fluorescence (less quenching)
- test.settings: dye: Cy5 (3' terminal)
Threshold check on background-corrected fluorescence: at or above 0.5 gives True, strictly below gives False.

biosequence: TTTTTTCATGAGCATCATGATTTTTTTTTTTTTTTGCTGC [CGTCG]
label: False
//
biosequence: TTTTTTGATCATCATGCTGCTTTTTTTTTTTTTTTCGGAA [AAGGC]
label: True
//
biosequence: TTTTTTGCTGCTCATCATCATTTTTTTTTTTTTTTAAGGG [GGGAA]
label: True
//
biosequence: TTTTTTCAGCATGATCATGCTTTTTTTTTTTTTTTGTCGA [AGCTG]
label: True
//
biosequence: TTTTTGCATGATGATCAGCATTTTTTTTTTTTTTTTCCGT [TGCCT]
label: False
//
biosequence: TTTTTTGCGCATGATGATCATTTTTTTTTTTTTTTATCCG [GCCTA]
label: False
//
biosequence: TTTTTGCATCATCATGAGCATTTTTTTTTTTTTTTTGGCT [TCGGT]
label: False
//
biosequence: TTTTTTCATCATGATCATGATTTTTTTTTTTTTTTGGCGC [CGCGG]
label: True
//
biosequence: TTTTTTGCTCATGAGCAGCATTTTTTTTTTTTTTTAGCTT [TTCGA]
label: False

---

- assay.comment: background-corrected fluorescence of 3'-dye-labeled ssDNA relative to brightest sequence (3'-GCGCG) (fraction); higher = brighter dye fluorescence (less quenching)
- test.settings: dye: Cy5 (3' terminal)
outcome.measure: background-corrected fluorescence

biosequence: TTTTTGCATGATGATGCTGCTTTTTTTTTTTTTTTTCCAA [AACCT]
outcome.measure: background-corrected fluorescence
numeric.value: 0.388

biosequence: TTTTTTGCTGAGCATGCTGCTTTTTTTTTTTTTTTACTAA [AATCA]
outcome.measure: background-corrected fluorescence
numeric.value: 0.413

biosequence: TTTTTGCAGCATGATGCTCATTTTTTTTTTTTTTTTTCAG [GACTT]
outcome.measure: background-corrected fluorescence
numeric.value: 0.358

biosequence: TTTTTTCATGCTCAGCATGCTTTTTTTTTTTTTTTGAGTA [ATGAG]
outcome.measure: background-corrected fluorescence
numeric.value: 0.486

biosequence: TTTTTGCAGCATCATGATCATTTTTTTTTTTTTTTTTGCG [GCGTT]
outcome.measure: background-corrected fluorescence
numeric.value: 0.46

biosequence: TTTTTTCATGATGATCAGCATTTTTTTTTTTTTTTGCCGT
outcome.measure: background-corrected fluorescence
numeric.value: 0.487

biosequence: TTTTTTGCTCATCATGAGCATTTTTTTTTTTTTTTAGGCT [TCGGA]
outcome.measure: background-corrected fluorescence
numeric.value: 0.435

biosequence: TTTTTTCAGCATGAGCATGCTTTTTTTTTTTTTTTGTCTA [ATCTG]
outcome.measure: background-corrected fluorescence
numeric.value: 0.381

biosequence: TTTTTTGAGCATGCTCATGATTTTTTTTTTTTTTTCTAGC [CGATC]
outcome.measure: background-corrected fluorescence
numeric.value: 0.407

biosequence: TTTTTTGAGCATGCTCAGCATTTTTTTTTTTTTTTCTAGT [TGATC]
outcome.measure: background-corrected fluorescence
numeric.value: 0.451

---

- assay.comment: background-corrected fluorescence of 3'-dye-labeled ssDNA relative to brightest sequence (3'-GCGCG) (fraction); higher = brighter dye fluorescence (less quenching)
- test.settings: dye: Cy5 (3' terminal)
Decision: background-corrected fluorescence >= 0.4 yields satisfied, all other cases yield not satisfied.

biosequence: TTTTTTGCTGCTCAGCAGCATTTTTTTTTTTTTTTAAGTT [TTGAA]
label: satisfied
//
biosequence: TTTTTTGCGCATGATGCTGATTTTTTTTTTTTTTTATCAC [CACTA]
label: not satisfied
//
biosequence: TTTTTGCAGCATCAGCATGATTTTTTTTTTTTTTTTTGTC [CTGTT]
label: not satisfied
//
biosequence: TTTTTTGCTCAGCATGCTCATTTTTTTTTTTTTTTAGTAG [GATGA]
label: satisfied

---

- assay.comment: background-corrected fluorescence of 3'-dye-labeled ssDNA relative to brightest sequence (3'-GCGCG) (fraction); higher = brighter dye fluorescence (less quenching)
- test.settings: dye: Cy5 (3' terminal)

biosequence: TTTTTTGCGCAGCAGCATGCTTTTTTTTTTTTTTTATTTA
background-corrected fluorescence: 0.432

biosequence: TTTTTGCAGCATGAGCATCATTTTTTTTTTTTTTTTTCTG [GTCTT]
background-corrected fluorescence: 0.338

biosequence: TTTTTTGCTGCGCAGCATCATTTTTTTTTTTTTTTAATTG [GTTAA]
background-corrected fluorescence: 0.381

biosequence: TTTTTGCAGCATGAGCATGATTTTTTTTTTTTTTTTTCTC [CTCTT]
background-corrected fluorescence: 0.272

biosequence: TTTTTTGCTGATCATGCTGATTTTTTTTTTTTTTTACGAC [CAGCA]
background-corrected fluorescence: 0.38

biosequence: TTTTTGCATGATGCGCATCATTTTTTTTTTTTTTTTCATG [GTACT]
background-corrected fluorescence: 0.377

biosequence: TTTTTTGAGCATCATGATGCTTTTTTTTTTTTTTTCTGCA [ACGTC]
background-corrected fluorescence: 0.452

biosequence: TTTTTGCATCAGCATCATGATTTTTTTTTTTTTTTTGTGC [CGTGT]
background-corrected fluorescence: 0.402

biosequence: TTTTTTGATGATGAGCAGCATTTTTTTTTTTTTTTCCCTT
background-corrected fluorescence: 0.359

biosequence: TTTTTTGATCATCATCATGCTTTTTTTTTTTTTTTCGGGA [AGGGC]
background-corrected fluorescence: 0.715

biosequence: TTTTTTGATGCGCATCAGCATTTTTTTTTTTTTTTCATGT [TGTAC]
background-corrected fluorescence: 0.464

biosequence: TTTTTTCATGCTGCGCATGCTTTTTTTTTTTTTTTGAATA [ATAAG]
background-corrected fluorescence: 0.42

biosequence: TTTTTTGCTGATGCTGCTCATTTTTTTTTTTTTTTACAAG [GAACA]
background-corrected fluorescence: 0.425

biosequence: TTTTTTGATCATCATGCTGATTTTTTTTTTTTTTTCGGAC [CAGGC]
background-corrected fluorescence: 0.389

biosequence: TTTTTTCATGATGCGCATGATTTTTTTTTTTTTTTGCATC [CTACG]
background-corrected fluorescence: 0.288

biosequence: TTTTTGCATCATGAGCATCATTTTTTTTTTTTTTTTGCTG [GTCGT]
background-corrected fluorescence: 0.358

biosequence: TTTTTTCATGCTCATCAGCATTTTTTTTTTTTTTTGAGGT [TGGAG]
background-corrected fluorescence: 0.56

biosequence: TTTTTTGAGCATGCGCATGATTTTTTTTTTTTTTTCTATC
background-corrected fluorescence: 0.309

biosequence: TTTTTTGATCATCATCATGATTTTTTTTTTTTTTTCGGGC
background-corrected fluorescence: 0.487

biosequence: TTTTTTGCTCATGCTGATCATTTTTTTTTTTTTTTAGACG [GCAGA]
background-corrected fluorescence: 0.443

biosequence: TTTTTGCATGCTGCTGATGCTTTTTTTTTTTTTTTTAACA [ACAAT]
background-corrected fluorescence: 0.405

---

- assay.comment: background-corrected fluorescence of 3'-dye-labeled ssDNA relative to brightest sequence (3'-GCGCG) (fraction); higher = brighter dye fluorescence (less quenching)
- test.settings: dye: Cy5 (3' terminal)
# if value of background-corrected fluorescence reaches 0.5, tag 1; if it stays below, tag -1

biosequence: TTTTTTGCTGCTGATGAGCATTTTTTTTTTTTTTTAACCT [TCCAA]
label: -1
//
biosequence: TTTTTTGCGCAGCATGCTGATTTTTTTTTTTTTTTATTAC [CATTA]
label: -1
//
biosequence: TTTTTTGAGCATCATGCTCATTTTTTTTTTTTTTTCTGAG [GAGTC]
label: -1
//
biosequence: TTTTTTGCTCATGCTGCTGCTTTTTTTTTTTTTTTAGAAA [AAAGA]
label: -1
//
biosequence: TTTTTTCATGCTGATCAGCATTTTTTTTTTTTTTTGACGT [TGCAG]
label: -1
//
biosequence: TTTTTTGCTGATCATGAGCATTTTTTTTTTTTTTTACGCT [TCGCA]
label: -1
//
biosequence: TTTTTTGCTGCGCATCATGCTTTTTTTTTTTTTTTAATGA [AGTAA]
label: 1
//
biosequence: TTTTTTGATCATCATCATCATTTTTTTTTTTTTTTCGGGG [GGGGC]
label: 1
//
biosequence: TTTTTTCAGCATCATCAGCATTTTTTTTTTTTTTTGTGGT [TGGTG]
label: 1
//
biosequence: TTTTTTGAGCAGCATGCGCATTTTTTTTTTTTTTTCTTAT [TATTC]
label: -1
//
biosequence: TTTTTTGCTCATCAGCATGCTTTTTTTTTTTTTTTAGGTA [ATGGA]
label: -1
//
biosequence: TTTTTGCATGATCAGCATGATTTTTTTTTTTTTTTTCGTC [CTGCT]
label: -1
//
biosequence: TTTTTTGCTGAGCATGAGCATTTTTTTTTTTTTTTACTCT [TCTCA]
label: -1
//
biosequence: TTTTTTCATCATCATGAGCATTTTTTTTTTTTTTTGGGCT [TCGGG]
label: -1
//
biosequence: TTTTTGCATCATGCTGCGCATTTTTTTTTTTTTTTTGAAT [TAAGT]
label: -1
//
biosequence: TTTTTTGCTGATGATCATCATTTTTTTTTTTTTTTACCGG [GGCCA]
label: 1
//
biosequence: TTTTTTCATGCTGATGCTGATTTTTTTTTTTTTTTGACAC [CACAG]
label: -1
//
biosequence: TTTTTTGCTGATCAGCATGCTTTTTTTTTTTTTTTACGTA [ATGCA]
label: -1
//
biosequence: TTTTTGCAGCAGCATGAGCATTTTTTTTTTTTTTTTTTCT [TCTTT]
label: -1
//
biosequence: TTTTTTCATGCTCATCATCATTTTTTTTTTTTTTTGAGGG [GGGAG]
label: 1
//
biosequence: TTTTTTGCTGATGATGAGCATTTTTTTTTTTTTTTACCCT [TCCCA]
label: -1

The reported numbers originate from the supplement of paper PMC9428881.
